As shown below, each of these substances has a reported % Inhibition value.
Tested on: human SMAD7 mRNA
Assay: Antisense inhibition of human SMAD7 mRNA expression in Hep3B cells by 3-10-3 cEt gapmers, 10,000 nM, electroporation (Example 2)
Format: cell-based
Details: Hep3B cells, electroporation with 10,000 nM antisense oligonucleotide, approximately 24 hours, SMAD7 mRNA by RT-PCR (RTS5062), relative to untreated control cells
Strand notation (5' to 3'): a small letter for the sugar, then the base; units joined by * are phosphorothioate-linked, units joined directly phosphodiester-linked; [ ] holds rarer units or linkages, { } end groups; capitals alone tell only the bases. k = constrained ethyl (cEt); [5mC] = 5-methylcytosine; d = 2'-deoxy (DNA)
readout kind: % Inhibition (%)

> print(dat)
                                   substance  readout.kind  value.units  value.observed
 1  798843 (k[5mC]*kT*kG*d[5mC]*dA*d[5mC]*d[5mC]*dA*dG*d[5mC]*dT*dG*dA*k[5mC]*kT*k[5mC]; antisense) [compound 798843]  % Inhibition            %              37
 2  799488 (antisense kT*kG*kG*dA*dA*dG*dA*d[5mC]*dA*d[5mC]*d[5mC]*d[5mC]*d[5mC]*k[5mC]*kA*k[5mC]) [compound 799488]  % Inhibition            %              42
 3  799368 (antisense k[5mC]*kT*kA*dA*dG*dT*d[5mC]*dT*d[5mC]*d[5mC]*dG*dA*dG*kT*kT*kA) [compound 799368]  % Inhibition            %              68
 4  800083 (antisense kT*kG*k[5mC]*dA*dG*dA*d[5mC]*d[5mC]*dG*dG*dT*dA*dT*kT*kA*kA) [compound 800083]  % Inhibition            %              11
 5  798770 (kA*kG*kG*dA*dA*dT*dG*d[5mC]*d[5mC]*dT*dG*dA*dG*kA*kT*k[5mC]; antisense) [compound 798770]  % Inhibition            %              47
 6  799376 (antisense kG*k[5mC]*kA*dG*dG*dA*dG*dG*dA*dA*d[5mC]*d[5mC]*dT*kA*k[5mC]*k[5mC]) [compound 799376]  % Inhibition            %              45
 7  799945 (antisense kA*kG*k[5mC]*dT*dT*dT*dT*dA*dG*dA*dG*d[5mC]*dT*kG*k[5mC]*kG) [compound 799945]  % Inhibition            %               5
 8  798783 (k[5mC]*kG*kG*d[5mC]*dT*dA*dA*dG*dG*dT*dG*dA*dT*kG*kG*kG; antisense) [compound 798783]  % Inhibition            %              45
 9  799336 (kA*k[5mC]*kT*dG*d[5mC]*dA*dG*dG*dA*dG*d[5mC]*dA*dG*kT*kG*k[5mC]; antisense) [compound 799336]  % Inhibition            %              25
10  800021 (kG*kG*k[5mC]*d[5mC]*dT*d[5mC]*dT*d[5mC]*dG*d[5mC]*dT*dG*dA*kT*kA*kG; antisense) [compound 800021]  % Inhibition            %               0
11  830041 (antisense kT*k[5mC]*kA*d[5mC]*dT*dT*d[5mC]*d[5mC]*dT*dA*dT*dT*dG*kG*k[5mC]*kT) [compound 830041]  % Inhibition            %              56
12  830021 (antisense kG*kG*kG*dA*dA*dA*dG*dG*d[5mC]*d[5mC]*d[5mC]*dA*dA*k[5mC]*kA*kG) [compound 830021]  % Inhibition            %              42
